# run description: Cytotoxicity against human HEK293T cells
# Format: toxicity, cell-based, HEK-293T
measured quantity: CC50 (nM)
Answers are plain numbers, in nM.

# input Form field: reported CC50 of CC(=O)N1/C(=C\c2ccc(-c3cnc4ccccc4c3)cc2)C(=O)c2ccccc21
# output 19

* * *

# target of assay: UniProt:P27338
# Sequence (P27338 whole entry): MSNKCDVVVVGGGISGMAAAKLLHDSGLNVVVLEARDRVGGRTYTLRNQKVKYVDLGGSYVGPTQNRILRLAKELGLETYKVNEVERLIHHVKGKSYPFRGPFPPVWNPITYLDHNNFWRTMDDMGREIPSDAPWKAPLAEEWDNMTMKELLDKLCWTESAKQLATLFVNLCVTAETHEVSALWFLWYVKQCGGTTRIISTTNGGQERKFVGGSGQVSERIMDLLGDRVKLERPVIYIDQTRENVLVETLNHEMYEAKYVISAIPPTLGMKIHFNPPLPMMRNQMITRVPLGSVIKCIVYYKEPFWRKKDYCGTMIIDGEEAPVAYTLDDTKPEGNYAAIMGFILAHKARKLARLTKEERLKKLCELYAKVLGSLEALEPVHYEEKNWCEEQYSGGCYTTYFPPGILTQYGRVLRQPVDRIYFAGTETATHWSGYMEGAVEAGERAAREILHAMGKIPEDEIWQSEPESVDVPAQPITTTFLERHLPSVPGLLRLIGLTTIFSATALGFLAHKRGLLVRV
# run description: Inhibition of recombinant human MAO-B using p-tyramine as substrate by Amplex-Red MAO assay
measured quantity: pKi
One number for each entry, as −log10 of the molar value.

# input Form field: reported pKi of O=C1/C(=C/c2c3ccccc3cc3ccccc23)Oc2ccccc21
# output 6.70

* * *

# target of assay: Serine/threonine-protein kinase pim-1 (Homo sapiens)
# Sequence (P11309 whole entry): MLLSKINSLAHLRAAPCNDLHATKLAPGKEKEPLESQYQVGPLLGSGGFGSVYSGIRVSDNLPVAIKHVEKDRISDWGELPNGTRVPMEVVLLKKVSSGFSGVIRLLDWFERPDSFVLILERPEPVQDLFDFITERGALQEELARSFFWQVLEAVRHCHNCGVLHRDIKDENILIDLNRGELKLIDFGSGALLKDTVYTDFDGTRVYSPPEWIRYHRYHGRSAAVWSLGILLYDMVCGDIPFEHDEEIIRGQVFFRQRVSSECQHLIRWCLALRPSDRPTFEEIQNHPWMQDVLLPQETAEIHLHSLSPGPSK
measured quantity: IC50 (µM)
Answers are plain numbers, in µM.

# input Report IC50 for O=C1/C(=C/c2cc(-c3ccncc3)[nH]n2)Oc2cc(O)cc(O)c21 tested on Serine/threonine-protein kinase pim-1 (Homo sapiens).
# output 18
